# assay_system: T1, human LAIR-1-ECD (human, UniProt Q6GTX8 22-165)
# T1 construct: Recombinant, expressed in mammalian cells; also called extracellular region of human LAIR-1
# T1 chain: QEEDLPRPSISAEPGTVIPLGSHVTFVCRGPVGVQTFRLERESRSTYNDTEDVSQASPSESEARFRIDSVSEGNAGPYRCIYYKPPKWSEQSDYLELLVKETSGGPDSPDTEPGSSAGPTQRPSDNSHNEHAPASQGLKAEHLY
# assay_text: SPR (Biacore); antibody captured by anti-Fc; LAIR-1-ECD injected;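 further: Anti-Fc immobilized on a CM5 chip, LAIR-1-ECD (human or cynomolgus) injected at 3.3-10 nM and 25 °C, kinetics fitted by simultaneous global fit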
Below: a set of entries, each annotated with reported kon.
# unit: M⁻¹ s⁻¹ | format: bare number

Answered examples (2):
binder	kon (M⁻¹ s⁻¹)
anti-LAIR-1 antibody 47A1 (antibody, V domains shown, Monoclonal antibody from immunized mice (hybridoma)) VH: EVQLVESGGGLVQPKGSLKLSCAASGFTFNTYAIHWVRQAPGKGLEWVARIRSKSTNYATYYADSVKDRFTISRDDSQSMVFLQMNNLKTEDTAMYYCVRENWYYYALDYWGQGTSVTVSS VL: DIQMTQSPASLSASVGETVTITCRASGNIHNYLTWYQQKQGKSPQVLVYNAKTLEDGVPSRFSGSESGTQYSLKINSLQPEDFGSYYCQHFWSTPFTFGSGTKLEIK	590000
anti-LAIR-1 antibody 61H4 (antibody, V domains shown, Monoclonal antibody from immunized mice (hybridoma)) VH: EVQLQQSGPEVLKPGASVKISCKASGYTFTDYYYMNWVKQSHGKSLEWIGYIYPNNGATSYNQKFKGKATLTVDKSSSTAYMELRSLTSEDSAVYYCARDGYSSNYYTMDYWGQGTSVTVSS VL: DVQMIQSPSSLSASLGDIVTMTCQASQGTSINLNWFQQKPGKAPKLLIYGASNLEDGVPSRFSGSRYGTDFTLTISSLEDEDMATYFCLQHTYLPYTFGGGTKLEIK	110000

**Q:** Entry anti-LAIR-1 antibody 62G10 (antibody, V domains shown, Monoclonal antibody from immunized mice (hybridoma)) VH: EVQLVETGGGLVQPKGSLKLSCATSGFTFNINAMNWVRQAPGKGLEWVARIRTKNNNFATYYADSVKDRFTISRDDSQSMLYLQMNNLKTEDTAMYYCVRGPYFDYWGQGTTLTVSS VL: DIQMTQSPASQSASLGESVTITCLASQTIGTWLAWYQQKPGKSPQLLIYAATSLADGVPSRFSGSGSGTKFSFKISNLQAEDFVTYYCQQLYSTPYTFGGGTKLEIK needs its kon filled in; supply it.
**A:** 550000

**Q:** Entry anti-LAIR-1 antibody 57D12 (antibody, V domains shown, Monoclonal antibody from immunized mice (hybridoma)) VH: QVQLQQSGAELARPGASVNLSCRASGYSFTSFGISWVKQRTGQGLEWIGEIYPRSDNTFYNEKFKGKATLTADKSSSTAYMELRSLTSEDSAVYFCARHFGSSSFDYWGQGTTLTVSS VL: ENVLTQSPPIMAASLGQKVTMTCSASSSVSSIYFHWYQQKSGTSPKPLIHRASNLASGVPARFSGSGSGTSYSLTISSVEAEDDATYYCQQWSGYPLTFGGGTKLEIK needs its kon filled in; supply it.
**A:** 170000

**Q:** Entry anti-LAIR-1 antibody 47H1 (antibody, V domains shown, Monoclonal antibody from immunized mice (hybridoma)) VH: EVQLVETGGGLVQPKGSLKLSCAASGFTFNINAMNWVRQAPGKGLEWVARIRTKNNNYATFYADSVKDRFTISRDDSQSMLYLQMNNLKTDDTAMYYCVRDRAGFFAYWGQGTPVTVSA VL: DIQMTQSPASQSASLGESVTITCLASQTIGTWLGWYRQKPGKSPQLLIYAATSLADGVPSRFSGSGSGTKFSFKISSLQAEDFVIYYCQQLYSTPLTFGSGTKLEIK needs its kon filled in; supply it.
**A:** 1.2e+06

**Q:** Entry anti-LAIR-1 antibody 108D10 (antibody, V domains shown, Monoclonal antibody from immunized mice (hybridoma)) VH: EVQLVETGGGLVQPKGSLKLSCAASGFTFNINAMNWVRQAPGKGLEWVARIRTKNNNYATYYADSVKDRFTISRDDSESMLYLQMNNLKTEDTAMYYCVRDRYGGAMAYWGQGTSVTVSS VL: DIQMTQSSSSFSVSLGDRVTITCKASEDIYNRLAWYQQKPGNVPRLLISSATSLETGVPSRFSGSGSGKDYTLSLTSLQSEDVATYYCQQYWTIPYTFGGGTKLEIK needs its kon filled in; supply it.
**A:** 1.1e+06
